Values from PubChem BioAssay (NCI)

System: SN12C renal
method_description: NCI tumour cell line growth inhibition, 48 h

| compound | TGI |
| --- | --- |
| CCC1(N=[N+]=[N-])C(=O)c2ccccc2N(C)C1=O (stereo unspecified) | > 100 µM |
| CC(C)(C)c1cc(C(O)(C(F)(F)F)C(F)(F)F)c2c(c1)C(C(F)(F)F)(C(F)(F)F)OC(C)(C(C)(C)C)N2 (stereo unspecified) | 16.8 µM |
| [O-][N+](=Nc1ccccc1CO)c1ccccc1CO | > 100 µM |
| COc1ccc(NC(=O)CSC2=C(Nc3cccc(Br)c3)C(=O)N(Cc3ccccc3)C2=O)cc1Cl | > 100 µM |
| CCNC(=O)COc1ccc(Br)cc1Br | > 100 µM |
| CCN(CC)CCCNc1ccc2nc(C)n3c4ccc(O)cc4c(=O)c1c23 | 18.7 µM |
